# protocol_text: Cytotoxicity against primary rat aortic VSMC as cell viability at 30 uM by trypan blue exclusion assay (reference value: 98+/-2%)
# Assay type: cell-based
# recorded_conditions: primary rat aortic vascular smooth muscle cells (VSMC), read-out: Activity
measurement_name: viability at 30 µM (%)
The reply should contain only the number, in %.

# viability at 30 µM of CC(C)=CCC/C(C)=C/Cc1cc2ccc(=O)oc2cc1O = 92
